Hi there, I'd appreciate the recorded IC50 for every entry that follows.

// IC50 (UniProt:Q13547) for `FC(F)(F)c1nc(-c2ccc(CNc3ccccn3)cc2)no1` = 1600 nM

// IC50 (UniProt:Q13547) for `CC(C)NC(=O)OCc1ccc(-c2noc(C(F)(F)F)n2)cn1` = 660 nM

// IC50 (UniProt:Q13547) for `FC(F)(F)c1nc(-c2ccnc(OCc3cncc(Cl)n3)c2)no1` = 1200 nM

// IC50 (UniProt:Q13547) for `COCc1cccc(CCOc2cc(-c3noc(C(F)(F)F)n3)ccn2)c1` = 1900 nM

// IC50 (UniProt:Q13547) for `NC(=O)c1cccc(CCOc2cc(-c3noc(C(F)(F)F)n3)ccn2)c1` = 1800 nM

// IC50 (UniProt:Q13547) for `Fc1cc(COc2nc3ncccc3n2CC(F)(F)F)ccc1-c1noc(C(F)(F)F)n1` = 2000 nM

// IC50 (UniProt:Q13547) for O=C(C1CCCS(=O)(=O)C1)N(Cc1ccc(-c2noc(C(F)(F)F)n2)cn1)c1cccc(F)c1 (racemic) = 220 nM

// IC50 (UniProt:Q13547) for O=C1CCC(c2cccc(Cl)c2)N1c1ccc(-c2noc(C(F)(F)F)n2)cc1F (racemic) = 1600 nM

// IC50 (UniProt:Q13547) for `Fc1cc(COc2nc[nH]n2)ccc1-c1noc(C(F)(F)F)n1` = 5500 nM

// IC50 (UniProt:Q13547) for `O=C1CCc2ncccc2N1Cc1ccc(-c2noc(C(F)(F)F)n2)cn1` = 580 nM

// IC50 (UniProt:Q13547) for O=C1Nc2ccc(F)cc2C1Cc1ccc(-c2noc(C(F)(F)F)n2)cc1 (racemic) = 710 nM

// IC50 (UniProt:Q13547) for `CC1(C)COCCN1C(=O)[C@@H]1CCC(=O)N1c1ccc(-c2noc(C(F)(F)F)n2)c(F)c1` = 45000 nM

// IC50 (UniProt:Q13547) for `CNC(=O)OCc1ccc(-c2noc(C(F)(F)F)n2)cn1` = 1700 nM

// IC50 (UniProt:Q13547) for `O=C1OC[C@@H](c2ccccc2)N1c1cc(F)c(-c2noc(C(F)(F)F)n2)cc1F` = 1000 nM

// IC50 (UniProt:Q13547) for CN1CC(C(=O)N(Cc2ccc(-c3noc(C(F)(F)F)n3)cn2)c2cccc(F)c2)CCC1=O (racemic) = 340 nM

// IC50 (UniProt:Q13547) for `CS(=O)(=O)N1CC(C(=O)N(Cc2ccc(-c3noc(C(F)(F)F)n3)cn2)c2cccc(F)c2)C1` = 280 nM

Just for reference, patent US11066396B2 is where these values come from.
